Parameter: pIC50. Scope: all listed entries.
Target: Serine/threonine-protein kinase pim-1 (Homo sapiens)
Sequence (P11309 whole entry): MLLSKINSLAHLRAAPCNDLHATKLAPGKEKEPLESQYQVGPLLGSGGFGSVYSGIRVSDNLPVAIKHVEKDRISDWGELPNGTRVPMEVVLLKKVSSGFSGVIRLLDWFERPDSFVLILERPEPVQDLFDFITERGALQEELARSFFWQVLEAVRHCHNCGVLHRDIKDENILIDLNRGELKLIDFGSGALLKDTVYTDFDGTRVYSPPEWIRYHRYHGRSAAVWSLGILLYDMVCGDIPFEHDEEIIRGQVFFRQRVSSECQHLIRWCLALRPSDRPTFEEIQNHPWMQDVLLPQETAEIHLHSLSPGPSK
Assay: Inhibition of recombinant Pim1 (unknown origin) by electrochemiluminescence assay
pIC50: −log10 of the molar value.
experimentalReadout: pIC50

{"compound": "C[C@H]1CCN(c2ccncc2Nc2ncc3ccc(-c4c(F)cccc4F)nn23)C[C@H]1N", "numericValue": 9.59}
{"compound": "N[C@H]1CCC[C@@H](c2ccncc2Nc2ncc3ccc(-c4c(F)cccc4F)nn23)C1 (racemic)", "numericValue": 8.43}
{"compound": "C[C@@H]1CCN(c2ccncc2Nc2ncc3ccc(-c4c(F)cccc4F)nn23)C[C@H]1N", "numericValue": 10.46}
{"compound": "N[C@H]1CCCN(c2ccncc2Nc2ncc3ccc(-c4ccc(F)cc4F)nn23)C1", "numericValue": 9.42}
{"compound": "N[C@H]1CCCN(c2ccnc(NC(=O)c3c[nH]c4ccc(-c5ccccc5F)nc34)c2)C1", "numericValue": 7.19}
{"compound": "O[C@H]1CCCN(c2ccncc2Nc2ncc3ccc(-c4c(F)cccc4F)nn23)C1", "numericValue": 8.54}
{"compound": "N[C@H]1CCCN(c2ccncc2Nc2ncc3ccc(-c4ccccc4F)nn23)C1", "numericValue": 9.64}
{"compound": "N[C@H]1CCCN(c2ccncc2Nc2ncc3ccc(-c4cccnc4F)nn23)C1", "numericValue": 9.64}

====

Target: Serine/threonine-protein kinase PIM (Homo sapiens, UniProt P11309+Q9P1W9+Q86V86)
Experiment: Inhibition of Pim1/2 in human KMS-12 cells assessed as decrease in BAD phosphorylation at Ser112 by Western blot method
Format: cell-based

{"compound": "N[C@H]1CCCN(c2ccncc2Nc2ncc3ccc(-c4ccc(F)cc4F)nn23)C1", "IC50 / µM": 1.761}
{"compound": "N[C@H]1CCC[C@@H](c2ccncc2Nc2ncc3ccc(-c4c(F)cccc4F)nn23)C1 (racemic)", "IC50 / µM": 5.12}
{"compound": "C[C@H]1CCN(c2ccncc2Nc2ncc3ccc(-c4c(F)cccc4F)nn23)C[C@H]1N", "IC50 / µM": 2.982}
{"compound": "N[C@H]1CCCN(c2ccncc2Nc2ncc3ccc(-c4nccs4)nn23)C1", "IC50 / µM": 0.602}
{"compound": "N[C@H]1CCCN(c2ccncc2Nc2ncc3ccc(-c4cccnc4F)nn23)C1", "IC50 / µM": 6.599}
{"compound": "N[C@H]1CCCN(c2ccncc2Nc2ncc3ccc(-c4ccccc4F)nn23)C1", "IC50 / µM": 1.536}

====

Test system: MDR1
Assay: Permeability in rat LLC-PK1 cells expressing MDR1
experimentalReadout: Papp (×10⁻⁶ cm/s)

{"smilesRepresentation": "C[C@@H]1C[C@H](N)CN(c2ccncc2Nc2ncc3ccc(-c4c(F)cccc4F)nn23)C1", "numericValue": 4.5}

====

Assay: Antiproliferative activity against PTEN-deficient human OPM2 cells after 72 hrs by CellTiter-Glo assay
Type: functional, cell-based
Conditions: OPM-2, 72 h

{"smilesRepresentation": "C[C@@H]1C[C@H](N)CN(c2ccncc2Nc2ncc3ccc(-c4c(F)cccc4F)nn23)C1", "IC50": "4.38 µM"}

====

Assay: Aqueous solubility in pH 7.4 PBS after 48 to 72 hrs by HPLC analysis
Format: physicochemical

{"smilesRepresentation": "C[C@@H]1C[C@H](N)CN(c2ccncc2Nc2ncc3ccc(-c4c(F)cccc4F)nn23)C1", "unitAbbreviation": "µg/mL", "solubility": 180}

FYI, the data here is from ChEMBL document CHEMBL3864151.
